B1: TRAF3IP2 (parent)
chain: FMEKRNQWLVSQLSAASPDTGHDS

# Variants of: B1
# PROCEDURE SUMMARY: protein stability index of a GFP-peptide fusion (GPS, HEK-293T) (PSI 1-6); higher = more stable;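 note: lentivirally expressed fusions sorted by FACS into six bins by GFP to DsRed ratio, PSI derived from sequencing read proportions per bin multiplied by bin number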
# STUDY CONDITIONS: c terminus: a fixed tail appended
We use 3 as the dividing line for protein stability index: on or above the line is TRUE, below is FALSE.

• S17R = FALSE
• Q12W = FALSE
• L9Y = FALSE
• K4T = FALSE
• S11V = FALSE
• S24R = FALSE
• P18H = FALSE
• W8M = TRUE
• P18Q = FALSE
• Q12S = FALSE
• K4L = FALSE
• S24C = FALSE
• V10S = TRUE
• D23V = FALSE
• V10G = TRUE
• F1N = TRUE
• R5P = FALSE
• P18Y = FALSE
• A16M = FALSE
• W8F = TRUE
• D23G = FALSE
• A16P = FALSE
• F1T = TRUE
• L9D = TRUE
• S11A = FALSE
• K4Y = FALSE
• Q12N = FALSE
• G21V = FALSE
• K4E = TRUE
• F1V = TRUE
• G21D = FALSE
• H22T = TRUE
• R5Q = FALSE
• D19G = FALSE
• V10L = FALSE
• N6S = FALSE
• S24G = TRUE
• S17Y = FALSE
• F1Q = TRUE
• G21W = FALSE
• S14E = FALSE
• N6K = FALSE
• S24D = FALSE
• K4P = FALSE
• G21R = FALSE
• H22S = FALSE
• P18V = FALSE
• T20C = FALSE
• A16L = FALSE
• L13I = FALSE
• L9T = FALSE
• W8C = TRUE
• F1I = TRUE
• S11M = FALSE
• D19W = FALSE
• S17G = FALSE
• A16R = FALSE
• S24V = FALSE
• A15W = FALSE
• S11W = TRUE
• S11Q = FALSE
• S14G = FALSE
• A15V = FALSE
• H22C = FALSE
• S17I = FALSE
• P18A = FALSE
• T20R = FALSE
• A15F = FALSE
• Q12H = TRUE
• W8I = TRUE
• E3L = FALSE
• Q7S = FALSE
